- Target Desc: CREB3 (Homo sapiens, UniProt O43889)
- Construct: made in house
- Experiment Notes: Direct-binding FRET assay
- Test Context: 23°C; C-terminal rhodamine design; mean or single; read-out: Kd
Where no end group is shown, it is not given here.

>  <Seq Text>
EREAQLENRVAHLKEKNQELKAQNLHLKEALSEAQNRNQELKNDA [XBP1-d1]

>  <Kd>
> 1 µM

$$$$
>  <Seq Text>
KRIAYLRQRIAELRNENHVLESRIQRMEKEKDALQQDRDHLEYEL [ATF5-d1]

>  <Kd>
> 5 µM

$$$$
>  <Seq Text>
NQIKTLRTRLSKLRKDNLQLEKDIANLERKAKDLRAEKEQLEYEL [ATF4-d1]

>  <Kd>
> 1 µM

$$$$
